Source of measurements: the supplement of paper PMC10307832

System: NCI-H1792
Assay: relative viability (nuclei count vs DMSO), 5 days (fraction); higher = more cells survive
Conditions: first compound 2.53 µM
Entries annotated with measured relative viability
experimental readout: relative viability

molecule	result number
COc1nc(C)cnc1NS(=O)(=O)c1cccnc1-c1ccc(-c2nnco2)cc1 [Zibotentan] + C[C@@H](Oc1cc(-c2cnn(C3CCNCC3)c2)cnc1N)c1c(Cl)ccc(F)c1Cl [Crizotinib] (partner 1 µM)	0.99
COc1nc(C)cnc1NS(=O)(=O)c1cccnc1-c1ccc(-c2nnco2)cc1 [Zibotentan] + O=C(c1cc(Cc2n[nH]c(=O)c3ccccc23)ccc1F)N1CCN(C(=O)C2CC2)CC1 [Olaparib] (partner 8 µM)	0.373
O=c1cc(-c2cccc3c2Sc2ccccc2S3)oc(N2CCOCC2)c1 + CS(=O)(=O)CCNCc1ccc(-c2ccc3ncnc(Nc4ccc(OCc5cccc(F)c5)c(Cl)c4)c3c2)o1 [Lapatinib] (partner 2 µM)	0.83

---

System: NCI-H520
Experiment: relative viability (nuclei count vs DMSO), 5 days (fraction); higher = more cells survive
Details: first compound 0.3162 µM
experimental readout: relative viability

compound	result number
O=c1cc(N2CCOCC2)oc2c(-c3cccc4c3sc3ccccc34)cccc12 + CC1(C)CCC(c2ccc(Cl)cc2)=C(CN2CCN(c3ccc(C(=O)NS(=O)(=O)c4ccc(N[C@H](CCN5CCOCC5)CSc5ccccc5)c(S(=O)(=O)C(F)(F)F)c4)cc3)CC2)C1 [Navitoclax] (partner 0.5 µM)	1.05
O=c1cc(N2CCOCC2)oc2c(-c3cccc4c3sc3ccccc34)cccc12 + Cc1cc(Nc2cc(N3CCN(C)CC3)nc(Sc3ccc(NC(=O)C4CC4)cc3)n2)n[nH]1 [Tozasertib] (partner 0.1 µM)	0.438
CCN(CC)CCCCNc1ncc2cc(-c3cc(OC)cc(OC)c3)c(NC(=O)NC(C)(C)C)nc2n1 + Cc1nc(Nc2ncc(C(=O)Nc3c(C)cccc3Cl)s2)cc(N2CCN(CCO)CC2)n1 [Dasatinib] (partner 0.075 µM)	0.159
CCN(CC)CCCCNc1ncc2cc(-c3cc(OC)cc(OC)c3)c(NC(=O)NC(C)(C)C)nc2n1 + Cc1nc(NC(=O)N2CCC[C@H]2C(N)=O)sc1-c1ccnc(C(C)(C)C(F)(F)F)c1 [Alpelisib] (partner 2 µM)	0.662
CCN(CC)CCCCNc1ncc2cc(-c3cc(OC)cc(OC)c3)c(NC(=O)NC(C)(C)C)nc2n1 + C[C@]1(O)C[C@@H](c2nc(-c3ccc4ccc(-c5ccccc5)nc4c3)c3c(N)nccn32)C1 [Linsitinib] (partner 1 µM)	0.912
O=c1cc(N2CCOCC2)oc2c(-c3cccc4c3sc3ccccc34)cccc12 + CC(C)C[C@H](NC(=O)[C@H](Cc1ccccc1)NC(=O)c1cnccn1)B(O)O [Bortezomib] (partner 0.002 µM)	0.64
O=c1cc(N2CCOCC2)oc2c(-c3cccc4c3sc3ccccc34)cccc12 + Cc1nc(NC(=O)N2CCC[C@H]2C(N)=O)sc1-c1ccnc(C(C)(C)C(F)(F)F)c1 [Alpelisib] (partner 2 µM)	0.841
O=c1cc(N2CCOCC2)oc2c(-c3cccc4c3sc3ccccc34)cccc12 + C[C@]1(O)C[C@@H](c2nc(-c3ccc4ccc(-c5ccccc5)nc4c3)c3c(N)nccn32)C1 [Linsitinib] (partner 1 µM)	0.923
O=c1cc(N2CCOCC2)oc2c(-c3cccc4c3sc3ccccc34)cccc12 + CCNC(=O)c1noc(-c2cc(C(C)C)c(O)cc2O)c1-c1ccc(CN2CCOCC2)cc1 [Luminespib] (partner 0.01 µM)	0.209
CCN(CC)CCCCNc1ncc2cc(-c3cc(OC)cc(OC)c3)c(NC(=O)NC(C)(C)C)nc2n1 + CCNC(=O)c1noc(-c2cc(C(C)C)c(O)cc2O)c1-c1ccc(CN2CCOCC2)cc1 [Luminespib] (partner 0.01 µM)	0.289
CCN(CC)CCCCNc1ncc2cc(-c3cc(OC)cc(OC)c3)c(NC(=O)NC(C)(C)C)nc2n1 + CC1(C)CCC(c2ccc(Cl)cc2)=C(CN2CCN(c3ccc(C(=O)NS(=O)(=O)c4ccc(N[C@H](CCN5CCOCC5)CSc5ccccc5)c(S(=O)(=O)C(F)(F)F)c4)cc3)CC2)C1 [Navitoclax] (partner 0.5 µM)	1.09

---

Entries annotated with measured relative viability
System: CAL-12T
Experiment: relative viability (nuclei count vs DMSO), 5 days (fraction); higher = more cells survive
Details: first compound 0.2 µM

compound	system tested	relative viability
COCC1(CO)C(=O)C2CCN1CC2 (stereo not drawn) [PRIMA-1MET] + Cc1nc(NC(=O)N2CCC[C@H]2C(N)=O)sc1-c1ccnc(C(C)(C)C(F)(F)F)c1 [Alpelisib] (partner 2 µM)	CAL-12T	1.19
COCC1(CO)C(=O)C2CCN1CC2 (stereo not drawn) [PRIMA-1MET] + O=C(CCCCCCC(=O)Nc1ccccc1)NO [Vorinostat] (partner 1 µM)	CAL-12T	0.78
COCC1(CO)C(=O)C2CCN1CC2 (stereo not drawn) [PRIMA-1MET] + CC(=O)c1c(C)c2cnc(Nc3ccc(N4CCNCC4)cn3)nc2n(C2CCCC2)c1=O [Palbociclib] (partner 0.5 µM)	CAL-12T	0.339
COCC1(CO)C(=O)C2CCN1CC2 (stereo not drawn) [PRIMA-1MET] + CC(C)C[C@H](NC(=O)[C@H](Cc1ccccc1)NC(=O)c1cnccn1)B(O)O [Bortezomib] (partner 0.002 µM)	CAL-12T	0.862
COCC1(CO)C(=O)C2CCN1CC2 (stereo not drawn) [PRIMA-1MET] + COc1cccc2cc(-c3nc([C@H]4CC[C@H](C(=O)O)CC4)n4ncnc(N)c34)[nH]c12 [OSI-027] (partner 0.5 µM)	CAL-12T	0.7
COCC1(CO)C(=O)C2CCN1CC2 (stereo not drawn) [PRIMA-1MET] + N=C(N)NC(=N)NCCc1ccccc1 [Phenformin] (partner 250 µM)	CAL-12T	0.52
COCC1(CO)C(=O)C2CCN1CC2 (stereo not drawn) [PRIMA-1MET] + CS(=O)(=O)N1CCN(Cc2cc3nc(-c4cccc5[nH]ncc45)nc(N4CCOCC4)c3s2)CC1 [Pictilisib] (partner 1 µM)	CAL-12T	0.486
COCC1(CO)C(=O)C2CCN1CC2 (stereo not drawn) [PRIMA-1MET] + CS(=O)(=O)CCNCc1ccc(-c2ccc3ncnc(Nc4ccc(OCc5cccc(F)c5)c(Cl)c4)c3c2)o1 [Lapatinib] (partner 2 µM)	CAL-12T	0.704

---

Test system: HCC-78
Assay: relative viability (nuclei count vs DMSO), 5 days (fraction); higher = more cells survive
Conditions: first compound 0.3162 µM

compound	relative viability
O=c1cc(N2CCOCC2)oc2c(-c3cccc4c3sc3ccccc34)cccc12 + O=C(c1cc(Cc2n[nH]c(=O)c3ccccc23)ccc1F)N1CCN(C(=O)C2CC2)CC1 [Olaparib] (partner 8 µM)	0.835
CCN(CC)CCCCNc1ncc2cc(-c3cc(OC)cc(OC)c3)c(NC(=O)NC(C)(C)C)nc2n1 + O=C(CCCCCCC(=O)Nc1ccccc1)NO [Vorinostat] (partner 1 µM)	0.456
O=c1cc(N2CCOCC2)oc2c(-c3cccc4c3sc3ccccc34)cccc12 + O=C(CCCCCCC(=O)Nc1ccccc1)NO [Vorinostat] (partner 1 µM)	0.464
CCN(CC)CCCCNc1ncc2cc(-c3cc(OC)cc(OC)c3)c(NC(=O)NC(C)(C)C)nc2n1 + CC(C)C[C@H](NC(=O)[C@H](Cc1ccccc1)NC(=O)c1cnccn1)B(O)O [Bortezomib] (partner 0.002 µM)	0.492
O=c1cc(N2CCOCC2)oc2c(-c3cccc4c3sc3ccccc34)cccc12 + CC1(C)CCC(c2ccc(Cl)cc2)=C(CN2CCN(c3ccc(C(=O)NS(=O)(=O)c4ccc(N[C@H](CCN5CCOCC5)CSc5ccccc5)c(S(=O)(=O)C(F)(F)F)c4)cc3)CC2)C1 [Navitoclax] (partner 0.5 µM)	0.755

---

Tested on: PC-3 [JPC-3]
Assay: relative viability (nuclei count vs DMSO), 5 days (fraction); higher = more cells survive
Conditions: first compound 20 µM

compound	system tested	relative viability
COCC1(CO)C(=O)C2CCN1CC2 (stereo not given) [PRIMA-1MET] + NC(=O)Nc1cc(-c2cccc(F)c2)sc1C(=O)N[C@H]1CCCNC1 [AZD7762] (partner 0.2 µM)	PC-3 [JPC-3]	0.672
COCC1(CO)C(=O)C2CCN1CC2 (stereo not given) [PRIMA-1MET] + O=C(c1cc(Cc2n[nH]c(=O)c3ccccc23)ccc1F)N1CCN(C(=O)C2CC2)CC1 [Olaparib] (partner 8 µM)	PC-3 [JPC-3]	0.981
COCC1(CO)C(=O)C2CCN1CC2 (stereo not given) [PRIMA-1MET] + C[C@@H](Oc1cc(-c2cnn(C3CCNCC3)c2)cnc1N)c1c(Cl)ccc(F)c1Cl [Crizotinib] (partner 1 µM)	PC-3 [JPC-3]	0.951
COCC1(CO)C(=O)C2CCN1CC2 (stereo not given) [PRIMA-1MET] + COc1cccc2cc(-c3nc([C@H]4CC[C@H](C(=O)O)CC4)n4ncnc(N)c34)[nH]c12 [OSI-027] (partner 0.5 µM)	PC-3 [JPC-3]	0.792
COCC1(CO)C(=O)C2CCN1CC2 (stereo not given) [PRIMA-1MET] + C[C@]1(O)C[C@@H](c2nc(-c3ccc4ccc(-c5ccccc5)nc4c3)c3c(N)nccn32)C1 [Linsitinib] (partner 1 µM)	PC-3 [JPC-3]	0.91
